- assay.info: in vitro
- stated.conditions: human, hela cells, % viability
measured.parameter: viability at 28.5 h, 10 µM (%)
// units = %; emit number, no label

// solved cases for viability at 28.5 h, 10 µM follow
O=C(CCCN1C(=O)c2cccc3cccc(c23)C1=O)N1CCN(Cc2ccc3c(c2)OCO3)CC1 :: 72.6
O=C(CCn1c2ccccc2c2ccccc21)N1CCn2cnnc2C1 :: 90.4

Given item `COc1ccc(S(=O)(=O)Nc2nccc(-c3ccc(CN4C(=O)CCC4=O)cc3)n2)cc1` , the value recorded as its viability at 28.5 h, 10 µM is 91.5

Given item `CCc1nc2cc(NC(=O)c3cc(C4CC4)nn3C)ccc2n1C` , the value recorded as its viability at 28.5 h, 10 µM is 85.8

Given item O=C1CC(N2CCN(Cc3ccc4c(c3)OCO4)CC2)C(=O)N1CCc1ccccc1 (stereo not drawn) , the value recorded as its viability at 28.5 h, 10 µM is 93.7

Given item `CN1CCN(S(=O)(=O)c2ccc(-c3cnc(N)c(-c4ccc(O)cc4)n3)cc2F)CC1` , the value recorded as its viability at 28.5 h, 10 µM is 93.9

Given item CN(C)CCNc1nc(-c2cccnc2)nc2ccccc12 [CBK264471C] , the value recorded as its viability at 28.5 h, 10 µM is 99.7

Given item `CN(C)CCCNc1ccc(-c2nnc(O)c3ccccc23)cc1[N+](=O)[O-]` , the value recorded as its viability at 28.5 h, 10 µM is 100

Given item `COc1ccc2nc(Nc3nc(-c4cccnc4)cs3)sc2c1` , the value recorded as its viability at 28.5 h, 10 µM is 89.1
